B1: library; numbered along this chain (parent)
chain: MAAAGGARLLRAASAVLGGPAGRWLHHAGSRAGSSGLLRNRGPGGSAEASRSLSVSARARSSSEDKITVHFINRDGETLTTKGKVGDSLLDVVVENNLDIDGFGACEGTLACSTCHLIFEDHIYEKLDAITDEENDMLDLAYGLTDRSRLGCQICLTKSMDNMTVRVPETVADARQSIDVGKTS

Variants of: B1
Experiment: scaled log2 fold change in cell abundance, elesclomol vs control (0 = silent mean, 1 = nonsense mean) (scaled log2 ratio); higher = higher viability under elesclomol (loss of FDX1 cuproptosis function);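 note: variant abundance is its share of total variant reads in each endpoint sample, from next-generation sequencing of the integrated ORF PCR-amplified out of genomic DNA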
Conditions: with HEK293T FDX1 KO; elesclomol 40 nM; glucose 10 mM; 11 days
OBSERVABLE: scaled log2 fold change
Numbers only.

mutant_label=F71L assay_value=-0.376
mutant_label=T183D assay_value=-0.222
mutant_label=M160K assay_value=1.28
mutant_label=L138H assay_value=0.223
mutant_label=T68V assay_value=0.769
mutant_label=G102T assay_value=2.33
mutant_label=E95V assay_value=-0.123
mutant_label=M137P assay_value=-0.842
mutant_label=D121M assay_value=1.79
mutant_label=H27K assay_value=0.621

// batch mode: one scaled log2 fold change value per listed entry
1. G86K
2. A57Y
3. T68I

A:
1: -0.0346; 2: 0.129; 3: 0.0716

// batch mode: one scaled log2 fold change value per listed entry
1. S35C
2. V92Q

A:
[0.128, 0.183]

// batch mode: one scaled log2 fold change value per listed entry
1. R149K
2. A3V
3. F119G
4. E48F

A:
1: -0.00324; 2: 0.00813; 3: 0.397; 4: 0.523

The reported numbers originate from the supplement of paper PMC12855868.
